Cited source: patent US9371374

biological target: biotinylated HCV core peptide 141-161 (Peptide 2) (HCV-1); test: EIA, captured mAb
Provide the reported Reactivity (OD492) of each item.
// note: answer is a bare numeric in OD

Incoming: Annotate the binder HCV 208A-210 (antibody, V domains shown) VH: QVQLQQSGPELVKPGASMRISCKASGYTFTSYYVHWIKQRPGQGLEWIGCIYPGDVNTDYNEKFKGKATLTADKSSSTAYMQVSTLTSEDSAIYFCVLYYYGSFAYWGQGTLVTVSA VL: EIVLTQSPAITAASLGQNVTITCRASSSVSYMHWYRQKSGTSPQLWIYEISRRASGVPARFRASGSGTSYSLTISSMEAEDAAIYYCQQWNYPLTFGAGTKLEVKR with its measured Reactivity (OD492).
Outgoing: 1.15

Incoming: Annotate the binder HCV 208B-174 (antibody, V domains shown) VH: EVKLEESGGGLVQPGGSMKLSCVASGFSFSSYWMSWVRQSPEKGLDWVAEIRLRSDNYATHYAESVKGRFTISRDDSISRLYLQMNTLRAEDTGIYYCTWMTYWGQGTLVTVSA VL: QNVLTQSPAIMSASPGEKVTMSCSASSSVTYMFWYQLKPESSPRLLIYDTSNLASGVPVRFSGSGSGTSYSLTISRMEAEDAATYYCQEWSSYPLTFGAGTKLDLKR with its measured Reactivity (OD492).
Outgoing: 1.26

Incoming: Annotate the binder HCV 208B-589 (antibody, V domains shown) VH: QVQLQQSGAGLAKPGASVKMSCKASGYTFTANKMHWAKQRPGQGLEWIGYIDPSSGYTEYNHKIQDKATLTADTSSSTAYMQLSSLTFEDSAVYYCTNFAYWGQGTLVTVSA VL: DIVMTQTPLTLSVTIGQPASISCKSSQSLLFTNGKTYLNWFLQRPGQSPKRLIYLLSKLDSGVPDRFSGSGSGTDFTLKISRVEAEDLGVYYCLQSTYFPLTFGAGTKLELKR with its measured Reactivity (OD492).
Outgoing: 0.1

Incoming: Annotate the binder HCV 208B-547 (antibody, V domains shown) VH: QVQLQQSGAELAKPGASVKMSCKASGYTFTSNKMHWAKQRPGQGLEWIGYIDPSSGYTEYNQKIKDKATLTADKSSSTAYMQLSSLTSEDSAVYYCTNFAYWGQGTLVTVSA VL: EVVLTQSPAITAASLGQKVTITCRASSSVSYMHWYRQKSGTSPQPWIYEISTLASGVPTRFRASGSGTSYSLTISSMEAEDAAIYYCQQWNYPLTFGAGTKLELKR with its measured Reactivity (OD492).
Outgoing: 0.08

Incoming: Annotate the binder HCV 208A-207 (antibody, V domains shown) VH: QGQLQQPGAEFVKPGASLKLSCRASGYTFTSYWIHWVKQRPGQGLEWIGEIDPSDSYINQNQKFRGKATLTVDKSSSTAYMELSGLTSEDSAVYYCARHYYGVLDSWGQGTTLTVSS VL: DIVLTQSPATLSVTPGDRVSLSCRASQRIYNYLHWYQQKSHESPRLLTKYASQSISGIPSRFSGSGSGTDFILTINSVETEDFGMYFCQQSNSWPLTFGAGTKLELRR with its measured Reactivity (OD492).
Outgoing: 0.17

Incoming: Annotate the binder HCV 208A-159 (antibody, V domains shown) VH: QLQQSGPAQVKPGASVMISCKTSGYTFTENAMHWVKQSHGKSLEWIGGVNPNNGDTIFNQKFKDKAALTVDKSSSTAFMELRSLTSEESTVYYCVRRELDFFDYWGQGTSVTVSS VL: DIVLTQSPASLAVSLGQRATISCRASQSVSTSRYSYVHWYQQKPGQPPKLLIKYAANLESGVPARFSGSGSGTDFTLNIHPVAEEDAAAYYCQHSWEFPFTFGSGTKLEIKR with its measured Reactivity (OD492).
Outgoing: 3.77

Incoming: Annotate the binder HCV 208A-877 (antibody, V domains shown) VH: QLQQSGPELVKPGASVKISCKTSGYTFTENAMHWVKQSRGKSLEWIGGVNPNNGDTVYTQKFKGKATLTVAKSSSTAYMELRTMTCEESTVYYCASREPDFFDYWGQGSSVTVSS VL: QIVLTQSPAIMSVSPGEKVSMTCSASSSVTYMHWYQQKSGTSPKRWIYDTSELASGVPARFSGSGSGTTYSLTISSMEAEDAATYYCQQWSNKPLTFGAGTKLELKR with its measured Reactivity (OD492).
Outgoing: 1.21

Incoming: Annotate the binder HCV 208B-395 (antibody, V domains shown) VH: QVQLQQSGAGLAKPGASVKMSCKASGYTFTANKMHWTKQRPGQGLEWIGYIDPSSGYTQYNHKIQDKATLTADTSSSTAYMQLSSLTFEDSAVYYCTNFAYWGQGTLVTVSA VL: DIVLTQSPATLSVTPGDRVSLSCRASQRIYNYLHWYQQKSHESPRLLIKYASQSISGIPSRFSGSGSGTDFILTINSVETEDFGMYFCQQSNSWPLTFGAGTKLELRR with its measured Reactivity (OD492).
Outgoing: 0.13

Incoming: Annotate the binder HCV 208B-793 (antibody, V domains shown) VH: EVKLVESGGGLVQPGGSLKLSCAASGFTFSSYAMSWVRQTPERRLEWVTYISNGGGSTYYSDTVKGRFTFSRDNAKNTLYLQMSSLKSEDTAMYYCARHGLGRTGFASWGQGTLVTVSA VL: DIVMTQSHKFMSTSVGDRVSITCKASQDVGTAVAWYQQKPGQSPKLLIYWASTRHTGVPDRFTGSGSGTDFTLTISNVQSEDLADYFCQQYSNYLTFGAGTKLEVKR with its measured Reactivity (OD492).
Outgoing: 0.72

Incoming: Annotate the binder HCV 208B-556 (antibody, V domains shown) VH: QLQQSGPVLVKPGASVMISCKTSGYTFTENAMHWVKQSHGKSLEWIGGVNPNNGDTIFNQKFKGKATLTVDKSSSTAFMEFRSLTSEESTVYYCVRRELDFFDYWGQGTSVTVSS VL: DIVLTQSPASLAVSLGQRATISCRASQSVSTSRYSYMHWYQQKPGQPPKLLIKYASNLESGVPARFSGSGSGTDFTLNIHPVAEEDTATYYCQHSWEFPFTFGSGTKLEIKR with its measured Reactivity (OD492).
Outgoing: 3.07
